Values compiled from patent USRE46630E1.

target: Human neutrophil elastase (Homo sapiens, UniProt P08246); experiment: Human Neutrophil Elastase Assay; details: Neutrophil Elastase assay; substrate MeOSuc-Ala-Ala-Pro-Val-AMC 250 μM; 15 min preincubation, 60 min incubation at room temperature; pH 7.5
measured_quantity: pIC50
// field semantics: pIC50 = negative decimal log of concentration (mol/L)

Cc1c(-c2ccnc(C(F)(F)F)c2)c(=O)c(C(=O)NCc2ccc(S(C)(=O)=O)cc2)cn1Cc1ccc(C#N)cn1; 8.55
Cc1c(-c2cccc(C(F)(F)F)c2)c(=O)c(C(N)=O)cn1Cc1ccc(C#N)cc1; 8.02

Record request: pIC50 value, item Cc1c(-c2cccc(C(F)(F)F)c2)c(=O)c(C(=O)NCCc2ccccn2)cn1Cc1ccc(C#N)cc1
8.05

Then what about the molecule Cc1c(-c2cccc(C(F)F)c2)c(=O)c(C(=O)NCc2ccc(S(C)(=O)=O)cc2)cn1C(C)c1ccc(C#N)cc1 (single isomer, unassigned) [Example 11B] ?
7.71

###

Target: Human neutrophil elastase (Homo sapiens, UniProt P08246)
Assay: Human Neutrophil Elastase Assay
Conditions: Neutrophil Elastase assay; substrate MeOSuc-Ala-Ala-Pro-Val-AMC 250 μM; 15 min preincubation, 60 min incubation at room temperature; pH 7.5
Method: Human Neutrophil Elastase Assay All other materials were of the highest grade commercially available. […] Assay conditions: Test compounds were prediluted in DMSO and subsequently in compound buffer (5% DMSO final). […] After inactivation of the enzyme, fluorescence intensities were measured at 380 nm excitation and 460 nm emission wavelengths. […]
measured_quantity: pIC50
Here pIC50 is given on a logarithmic scale as minus log10 of the concentration in mol/L.

As a guide, the following entries are already answered.
Cc1c(-c2cccc(C(F)(F)F)c2)c(=O)c(C(=O)NCC(C)(C)O)cn1C(C)c1ccc(C#N)cc1 (centres unmarked); 7.99
Cc1c(-c2ccnc(C(F)(F)F)c2)c(=O)c(C(=O)NC2COCC2O)cn1C(C)c1ccc(C#N)cc1 (centres unmarked) [Example 9.42]; 7.52
CCCNC(=O)c1cn(Cc2ccc(C#N)cc2)c(C)c(-c2cccc(C(F)(F)F)c2)c1=O; 7.62

Now consider the entry below.
Field request: pIC50 | item: Cc1c(-c2ccnc(C(F)(F)F)c2)c(=O)c(C(=O)NC2CC3CCC2O3)cn1C(C)c1ccc(C#N)cc1 (centres unmarked)
7.23

###

Listing of recorded pIC50 by entry.
Target: Human neutrophil elastase (Homo sapiens)
Sequence (P08246 30-267): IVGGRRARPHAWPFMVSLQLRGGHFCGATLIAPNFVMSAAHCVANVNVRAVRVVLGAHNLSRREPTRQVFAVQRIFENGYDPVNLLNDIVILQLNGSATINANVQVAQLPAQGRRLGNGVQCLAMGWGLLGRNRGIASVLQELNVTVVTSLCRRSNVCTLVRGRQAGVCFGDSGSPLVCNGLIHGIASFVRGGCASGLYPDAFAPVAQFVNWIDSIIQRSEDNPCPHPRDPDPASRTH
Assay: Human Neutrophil Elastase Assay
Settings: Neutrophil Elastase assay; substrate MeOSuc-Ala-Ala-Pro-Val-AMC 250 μM; 15 min preincubation, 60 min incubation at room temperature; pH 7.5
By convention, pIC50 is the negative base-10 log of a molar concentration.

Recorded pIC50, per entry:
Cc1c(-c2ccnc(C(F)(F)F)c2)c(=O)c(C(=O)NCC(C)(C)O)cn1C(C)c1ccc(C#N)cc1 (centres unmarked); 7.43
Cc1c(-c2cccc(C(F)F)c2)c(=O)c(C(=O)NCCCS(C)(=O)=O)cn1C(C)c1ccc(C#N)cc1 (centres unmarked); 8.89
Cc1c(-c2cccc(C(F)(F)F)c2)c(=O)c(C(=O)NCCCN(C)C)cn1C(C)c1ccc(C#N)cc1 (centres unmarked); 8.39
Cc1nnc(CNC(=O)c2cn(C(C)c3ccc(C#N)cc3)c(C)c(-c3cccc(C(F)(F)F)c3)c2=O)o1 (centres unmarked); 8.85
Cc1c(-c2ccnc(C(F)(F)F)c2)c(=O)c(C(=O)NCCS(C)(=O)=O)cn1C(C)c1ccc(C#N)cc1 (centres unmarked); 8.48
CNC(=O)c1cn(Cc2ccc(C#N)cc2F)c(C)c(-c2ccnc(C(F)(F)F)c2)c1=O; 7.34

Endpoint output: pIC50 of Cc1c(-c2ccnc(C(F)(F)F)c2)c(=O)c(C(=O)NCC2CCOCC2)cn1C(C)c1ccc(C#N)cc1 (centres unmarked) . Value?
7.89

Let us now turn to Cc1c(-c2cccc(C(F)(F)F)c2)c(=O)c(C(=O)NCCCS(C)(=O)=O)cn1C(C)c1ccc(C#N)cc1 (centres unmarked)
8.89

Query CCNC(=O)c1cn(C(C)c2ccc(C#N)cc2)c(C)c(-c2ccnc(C(F)F)c2)c1=O (centres unmarked) next
7.96

Cc1c(-c2cccc(C(F)(F)F)c2)c(=O)c(C(=O)NCC(O)CO)cn1Cc1ccc(C#N)cc1 (centres unmarked) , same question.
7.68

Record: Cc1c(-c2cccc(C(F)(F)F)c2)c(=O)c(C(=O)NCc2cccc(=O)[nH]2)cn1Cc1ccc(C#N)cc1
8.68

And the next one, Cc1c(-c2cccc(C(F)(F)F)c2)c(=O)c(C(=O)NCC2(O)CC2)cn1C(C)c1ccc(C#N)cc1 (centres unmarked) ?
7.75

###

target: Human neutrophil elastase (Homo sapiens); assay: Human Neutrophil Elastase Assay; settings: Neutrophil Elastase assay; substrate MeOSuc-Ala-Ala-Pro-Val-AMC 250 μM; 15 min preincubation, 60 min incubation at room temperature; pH 7.5
measured_quantity: IC50
Write the numeric value and append its unit.

Cc1c(-c2cccc(C(F)(F)F)c2)c(=O)c(C(=O)NCc2ccc(S(C)(=O)=O)cn2)cn1Cc1ccncc1; 58 nM
Cc1c(-c2cccc(C(F)(F)F)c2)c(=O)c(C(=O)NC2CCOC2)cn1C(C)c1ccc(C#N)cn1 (stereo not shown); 67.2 nM
CCNC(=O)c1cn(C(C)c2ccc(C#N)cc2)c(C)c(-c2cccc(C(F)F)c2)c1=O (stereo not shown); 3 nM

Okay, now this molecule:
Which IC50 is reported for this molecule? COC(=O)CNC(=O)c1cn(Cc2ccc(C#N)cc2)c(C)c(-c2cccc(C(F)(F)F)c2)c1=O
22.5 nM

###

molecular target: Human neutrophil elastase (Homo sapiens); test: Human Neutrophil Elastase Assay; settings: Neutrophil Elastase assay; substrate MeOSuc-Ala-Ala-Pro-Val-AMC 250 μM; 15 min preincubation, 60 min incubation at room temperature; pH 7.5
Labelling field: enter T if recorded IC50 is less than 10 nM. Enter F if it equals or exceeds that cut-off.

# example entries with known answers
Cc1c(-c2ccnc(C(F)(F)F)c2)c(=O)c(C(=O)NCC(C)C)cn1C(C)c1ccc(C#N)cc1 (centres unmarked) [Example 9.53]; F
Cc1c(-c2ccnc(C(F)(F)F)c2)c(=O)c(C(=O)NCCN(C)C)cn1C(C)c1ccc(C#N)cc1 (centres unmarked) [Example 9.10]; F
Cc1c(-c2cccc(C(F)(F)F)c2)c(=O)c(C(=O)NCCCS(C)(=O)=O)cn1Cc1ccc(C#N)cc1 [Example 1.16]; T

Here's an entry: Cc1c(-c2ccnc(C(F)(F)F)c2)c(=O)c(C(=O)NCC2CC(O)C2)cn1C(C)c1ccc(C#N)cc1 (centres unmarked) [Example 9.48] . Is its IC50 below 10 nM?
F

Thanks! And COc1cc(-c2c(C)n(Cc3ccc(C#N)cc3)cc(C(=O)NCc3ccc(S(C)(=O)=O)cc3)c2=O)ccn1 [Example 6.6] ?
F

Now consider Cc1c(-c2cccc(C(F)(F)F)c2)c(=O)c(C(=O)NCc2cn(C)cn2)cn1Cc1ccc(C#N)cc1 [Example 1.31] .
F

Same again, this time with CNC(=O)c1cn(Cc2ccc(C#N)cn2)c(C)c(-c2ccnc(C(F)(F)F)c2)c1=O [Example 44]
F

Would you kindly repeat that for CNC(=O)c1cn(Cc2ccc(C#N)c(F)c2)c(C)c(-c2cccc(C(F)(F)F)c2)c1=O [Example 3.5] ?
F

Same thing, different compound: Cc1c(-c2cncc(Cl)c2)c(=O)c(C(=O)NCc2ccc(S(C)(=O)=O)cc2)cn1Cc1ccc(C#N)cc1 [Example 6.9]
T

How about this compound: COCCNC(=O)c1cn(C(C)c2ccc(C#N)cc2)c(C)c(-c2cccc(C(F)F)c2)c1=O (centres unmarked) [Example 8.26]
T

Further, for Cc1c(-c2cccc(C(F)(F)F)c2)c(=O)c(C(=O)NCC2CC[N+](C)(C)CC2)cn1Cc1ccc(C#N)cc1 [Example 12.3] ?
F

Next compound: Cc1c(-c2cccc(C(F)(F)F)c2)c(=O)c(C(=O)NC2CCS(=O)(=O)C2)cn1Cc1ccc(C#N)cc1 (centres unmarked) [Example 1.64]
F

Another compound: Cc1c(-c2cccc(C(F)F)c2)c(=O)c(C(=O)NCc2ccc(S(C)(=O)=O)cc2)cn1C(C)c1ccc(C#N)cc1 (single isomer, unassigned) [Example 11A]
T
